Where do the numbers come from? From paper PMC3114436.

molecular target: peptides with Tyr, Trp, Phe, or Leu at the N-terminus; assay: fluorescence polarisation
PROPERTY NAME: Kd

# input Please look up its Kd: C. crescentus ClpS residues 35-119 (domain or fragment) TQKPSLYRVLILNDDYTPMEFVVYVLERFFNKSREDATRIMLHVHQNGVGVCGVYTYEVAETKVAQVIDSARRHQHPLQCTMEKD
# output 150 to 500 nM
